Recorded pIC50 by entry
- assay_target: Mitogen-activated protein kinase 10 (Homo sapiens)
- Sequence (P53779 whole entry): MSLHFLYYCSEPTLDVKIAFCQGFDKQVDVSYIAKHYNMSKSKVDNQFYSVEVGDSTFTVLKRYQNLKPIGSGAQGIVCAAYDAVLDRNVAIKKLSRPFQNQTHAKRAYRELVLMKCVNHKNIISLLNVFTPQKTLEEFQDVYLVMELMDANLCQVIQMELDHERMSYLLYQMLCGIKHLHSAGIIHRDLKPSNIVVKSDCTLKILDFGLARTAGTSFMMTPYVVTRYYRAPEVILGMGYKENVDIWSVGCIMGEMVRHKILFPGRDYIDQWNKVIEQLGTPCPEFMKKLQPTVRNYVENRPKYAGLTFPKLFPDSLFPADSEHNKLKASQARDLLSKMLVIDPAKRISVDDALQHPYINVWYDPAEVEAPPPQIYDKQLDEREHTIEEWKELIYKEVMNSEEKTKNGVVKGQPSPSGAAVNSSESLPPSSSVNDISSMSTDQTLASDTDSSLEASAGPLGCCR
- test: Inhibition of JNK3
pIC50: −log10 of the molar value.

{"molecule": "CCn1c(-c2nonc2N)nc2cncc(C(=O)N3CC[C@H](N)C3)c21", "assay_target": "Mitogen-activated protein kinase 10 (Homo sapiens)", "pIC50": "< 5.00"}

Moving on to the next molecule.
Record summary for CCn1c(-c2nonc2N)nc2cnc(Oc3cccc(NC(=O)c4ccc(OCCN5CCOCC5)cc4)c3)cc21 [GSK-269962A] : reported pIC50 = < 5.00

---

- assay_target: RAC-gamma serine/threonine-protein kinase (Homo sapiens, UniProt Q9Y243)
- Sequence (Q9Y243 whole entry): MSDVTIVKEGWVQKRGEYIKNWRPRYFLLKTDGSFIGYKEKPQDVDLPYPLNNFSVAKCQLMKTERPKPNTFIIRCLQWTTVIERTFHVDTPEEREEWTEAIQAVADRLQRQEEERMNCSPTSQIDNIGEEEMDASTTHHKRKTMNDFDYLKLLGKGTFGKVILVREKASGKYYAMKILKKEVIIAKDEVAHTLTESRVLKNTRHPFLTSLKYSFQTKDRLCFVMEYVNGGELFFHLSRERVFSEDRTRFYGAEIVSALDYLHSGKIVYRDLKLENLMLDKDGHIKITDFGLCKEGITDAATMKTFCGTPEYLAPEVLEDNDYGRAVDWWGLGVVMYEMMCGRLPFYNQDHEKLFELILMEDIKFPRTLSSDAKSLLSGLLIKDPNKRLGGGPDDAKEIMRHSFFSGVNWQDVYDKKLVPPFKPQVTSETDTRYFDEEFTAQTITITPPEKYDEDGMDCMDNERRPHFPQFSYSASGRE
reported_endpoint: pIC50
Remember, pIC50 is on a log scale: it is -log10 of the molar concentration.

So the reported pIC50 for CCn1c(-c2nonc2N)nc2cnc(Oc3cccc(NC(=O)c4ccc(OCCN5CCOCC5)cc4)c3)cc21 [GSK-269962A] , on RAC-gamma serine/threonine-protein kinase (Homo sapiens, UniProt Q9Y243), turned out to be 5.82

---

- assay_target: Ribosomal protein S6 kinase alpha-1 (Homo sapiens)
- Sequence (Q15418 whole entry): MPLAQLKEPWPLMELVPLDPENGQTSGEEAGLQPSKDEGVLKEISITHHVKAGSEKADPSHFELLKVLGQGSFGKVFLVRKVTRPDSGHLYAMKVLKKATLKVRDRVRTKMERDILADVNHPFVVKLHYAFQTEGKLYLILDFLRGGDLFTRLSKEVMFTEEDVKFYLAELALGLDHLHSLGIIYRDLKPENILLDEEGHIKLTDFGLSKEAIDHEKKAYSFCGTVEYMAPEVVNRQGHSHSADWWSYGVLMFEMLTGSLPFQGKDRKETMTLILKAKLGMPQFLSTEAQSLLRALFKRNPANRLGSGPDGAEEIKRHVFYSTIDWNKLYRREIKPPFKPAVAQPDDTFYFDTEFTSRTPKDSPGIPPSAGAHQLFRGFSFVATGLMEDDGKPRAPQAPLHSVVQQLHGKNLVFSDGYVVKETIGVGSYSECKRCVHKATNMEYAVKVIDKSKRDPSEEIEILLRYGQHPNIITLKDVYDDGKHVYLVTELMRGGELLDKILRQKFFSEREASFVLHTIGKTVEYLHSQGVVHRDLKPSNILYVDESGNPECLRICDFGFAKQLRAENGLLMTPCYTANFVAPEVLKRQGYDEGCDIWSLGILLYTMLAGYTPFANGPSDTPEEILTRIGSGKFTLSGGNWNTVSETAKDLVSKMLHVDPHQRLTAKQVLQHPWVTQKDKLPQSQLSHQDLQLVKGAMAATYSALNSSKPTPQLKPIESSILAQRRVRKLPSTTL
reported_endpoint: pIC50
Remember, pIC50 is on a log scale: it is -log10 of the molar concentration.

Record summary for CCn1c(-c2nonc2N)nc2cnc(Oc3cccc(NC(=O)c4ccc(OCCN5CCOCC5)cc4)c3)cc21 [GSK-269962A] : reported pIC50 = 6.88

---

- assay_target: Rho-associated protein kinase 2 (Homo sapiens)
- Sequence (O75116 whole entry): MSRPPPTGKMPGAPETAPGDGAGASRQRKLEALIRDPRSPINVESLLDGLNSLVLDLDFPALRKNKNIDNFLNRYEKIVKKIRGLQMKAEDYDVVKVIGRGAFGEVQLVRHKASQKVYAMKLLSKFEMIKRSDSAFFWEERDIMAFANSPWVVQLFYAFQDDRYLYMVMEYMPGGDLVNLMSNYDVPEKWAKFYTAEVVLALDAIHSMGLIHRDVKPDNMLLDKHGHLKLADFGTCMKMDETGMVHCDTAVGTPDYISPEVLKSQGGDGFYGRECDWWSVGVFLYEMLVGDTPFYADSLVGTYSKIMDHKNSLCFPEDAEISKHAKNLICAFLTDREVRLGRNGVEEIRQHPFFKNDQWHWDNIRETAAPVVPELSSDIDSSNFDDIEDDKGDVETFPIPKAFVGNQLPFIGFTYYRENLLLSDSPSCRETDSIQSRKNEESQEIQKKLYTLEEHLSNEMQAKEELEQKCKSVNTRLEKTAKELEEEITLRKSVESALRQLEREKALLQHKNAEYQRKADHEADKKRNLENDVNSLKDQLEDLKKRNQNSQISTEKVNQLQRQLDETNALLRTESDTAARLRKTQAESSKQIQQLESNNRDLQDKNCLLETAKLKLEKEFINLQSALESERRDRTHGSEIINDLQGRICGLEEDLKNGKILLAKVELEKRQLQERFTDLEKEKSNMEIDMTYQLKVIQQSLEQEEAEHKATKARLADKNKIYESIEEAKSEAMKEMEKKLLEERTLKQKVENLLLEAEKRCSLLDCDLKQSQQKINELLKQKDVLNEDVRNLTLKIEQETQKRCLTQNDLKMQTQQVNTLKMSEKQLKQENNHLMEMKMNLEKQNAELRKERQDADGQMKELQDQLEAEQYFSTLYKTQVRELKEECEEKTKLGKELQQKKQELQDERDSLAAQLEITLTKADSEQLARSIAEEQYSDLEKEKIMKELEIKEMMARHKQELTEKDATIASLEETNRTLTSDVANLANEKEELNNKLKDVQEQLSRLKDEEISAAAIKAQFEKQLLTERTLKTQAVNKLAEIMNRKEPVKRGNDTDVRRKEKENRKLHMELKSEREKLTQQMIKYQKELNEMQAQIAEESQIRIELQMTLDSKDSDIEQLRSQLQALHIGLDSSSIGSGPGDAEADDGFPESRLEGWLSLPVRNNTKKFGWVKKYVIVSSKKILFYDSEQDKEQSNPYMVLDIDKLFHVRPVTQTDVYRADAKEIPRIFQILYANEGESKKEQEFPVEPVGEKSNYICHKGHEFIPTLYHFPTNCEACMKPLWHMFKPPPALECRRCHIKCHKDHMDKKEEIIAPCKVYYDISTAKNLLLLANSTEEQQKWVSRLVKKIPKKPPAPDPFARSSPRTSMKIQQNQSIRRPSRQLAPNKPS
pIC50: −log10 of the molar value.
reported_endpoint: pIC50

So the reported pIC50 for "CCn1c(-c2nonc2N)nc2cncc(-c3ccc(CN)cc3)c21" , on Rho-associated protein kinase 2 (Homo sapiens), turned out to be > 8.00

---

Recorded pIC50 by entry
- assay_target: Inhibitor of nuclear factor kappa-B kinase subunit beta (Homo sapiens, UniProt O14920)
- Sequence (O14920 whole entry): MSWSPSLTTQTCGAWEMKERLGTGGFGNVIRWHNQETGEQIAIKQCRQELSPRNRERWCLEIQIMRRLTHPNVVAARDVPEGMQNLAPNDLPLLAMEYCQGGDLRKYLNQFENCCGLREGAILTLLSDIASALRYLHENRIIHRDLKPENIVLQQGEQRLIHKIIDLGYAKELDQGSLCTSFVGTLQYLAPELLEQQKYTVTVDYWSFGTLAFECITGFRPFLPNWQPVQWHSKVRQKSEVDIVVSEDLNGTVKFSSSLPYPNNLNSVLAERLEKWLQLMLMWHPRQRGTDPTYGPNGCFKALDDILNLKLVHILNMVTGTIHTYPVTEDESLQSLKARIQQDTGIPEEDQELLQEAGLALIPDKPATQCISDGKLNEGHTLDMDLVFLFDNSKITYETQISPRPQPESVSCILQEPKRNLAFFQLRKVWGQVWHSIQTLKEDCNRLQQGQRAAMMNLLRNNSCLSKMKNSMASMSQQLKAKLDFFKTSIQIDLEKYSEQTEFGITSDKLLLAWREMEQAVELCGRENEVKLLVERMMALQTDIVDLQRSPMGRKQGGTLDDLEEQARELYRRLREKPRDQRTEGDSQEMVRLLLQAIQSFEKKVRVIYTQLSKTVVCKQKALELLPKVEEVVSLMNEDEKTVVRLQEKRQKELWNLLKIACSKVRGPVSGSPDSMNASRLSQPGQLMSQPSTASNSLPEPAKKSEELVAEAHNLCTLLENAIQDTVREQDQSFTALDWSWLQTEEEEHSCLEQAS
- test: Inhibition of IKK2
pIC50: −log10 of the molar value.

{"compound": "CCn1c(-c2nonc2N)nc2cncc(C(=O)N3CC[C@H](N)C3)c21", "pIC50": "< 5.00"}

Record summary for CCn1c(-c2nonc2N)nc2cnc(Oc3cccc(NC(=O)c4ccc(OCCN5CCOCC5)cc4)c3)cc21 [GSK-269962A] : reported pIC50 = < 5.00
